Tested on: Acinetobacter baumannii ATCC17961
Assay: Antimicrobial susceptibility testing: 90% growth inhibitory concentration (IC90) determination, Iso-Sensitest broth
Format: cell-based
Conditions: Acinetobacter baumannii, ATCC17961, 90% growth inhibitory concentration, Acinetobacter baumannii ATCC17961, Iso-Sensitest broth; read-out: ATCC 17961 IC90
Structures can show the parent of a compound that is named as a salt.
With a cut-off of 70 nM, any IC90 strictly below it is called true; any IC90 meeting it or above is called false.

Examples from the recorded data:
compound	tgt	label
Cc1cc(NC(=O)c2ncc(-c3ccc(OCC#N)c(F)c3F)n2C)ccc1C(=O)N1CCC(C(=O)N2CCO[C@@H](CN)C2)CC1 [Example 87, 2,2,2-trifluoroacetate]	Acinetobacter baumannii ATCC17961	false
COc1ccc(-c2cnc(C(=O)Nc3ccc(C(=O)N4C[C@@H]5CN(C(=O)[C@@H]6CCNC6)C[C@@H]5C4)c(Cl)c3)n2C)c(F)c1F [Example 188, formate]	Acinetobacter baumannii ATCC17961	false
Cn1c(-c2ccc(OCC#N)c(F)c2F)cnc1C(=O)Nc1ccc(C(=O)N2CCN(C(=O)[C@@H]3CCNC[C@H]3O)CC2)c(Cl)c1	Acinetobacter baumannii ATCC17961	false
COc1ccc(-c2cnc(C(=O)Nc3ccc(C(=O)N4CCC(C(=O)NC5CCNCC5)CC4)c(Cl)c3)n2C)c(F)c1F [Example 38, formate]	Acinetobacter baumannii ATCC17961	true
COc1ccc(-c2cnc(C(=O)Nc3ccc(C(=O)N4CCN(C(=O)CN)CC4)c(Cl)c3)n2C)c(F)c1F [Example 149, formate]	Acinetobacter baumannii ATCC17961	true

## Task Would you kindly verify if IC90 of COc1ccc(-c2cnc(C(=O)Nc3ccc(C(=O)N4CCN(C(=O)C5CC(C(N)=O)C5)CC4)c(Cl)c3)n2C)c(F)c1F (stereo not drawn) is strictly less than 70 nM?
## Result false

## Task Report whether reported IC90 is lower than 70 nM (strictly) for COc1ccc(-c2cnc(C(=O)Nc3ccc(C(=O)N4CCC(NC(=O)[C@@H]5C[C@@H](O)CN5)CC4)c(Cl)c3)n2C)c(F)c1F
## Result false

## Task Is the reported IC90 for COc1ccc(-c2cnc(C(=O)Nc3ccc(C(=O)N4CCN(C(=O)CC5CCC(=O)N5)CC4)c(Cl)c3)n2C)c(F)c1F (stereo not drawn) strictly below 70 nM?
## Result false

## Task Record Cn1c(-c2ccc(OCF)c(F)c2F)cnc1C(=O)Nc1ccc(C(=O)N2CCN(C(=O)[C@@H]3C[C@@H](O)CN3)CC2)c(Cl)c1 [Example 221, formate] : is its IC90 strictly below 70 nM?
## Result true

## Task For COc1ccc(-c2cnc(C(=O)Nc3ccc(C(=O)N4CCC(NS(=O)(=O)C5CCNC5)CC4)c(Cl)c3)n2C)c(F)c1F (stereo not drawn) , is the recorded IC90 below the cut-off of 70 nM?
## Result true

## Task Does the reported IC90 of the following compound sit strictly below 70 nM? COc1ccc(-c2cnc(C(=O)Nc3ccc(C(=O)N4CC(NC(=O)C5CCNCC5)C4)c(Cl)c3)n2C)c(F)c1F [Example 187, formate]
## Result false

## Task Lab log: compare recorded IC90 with 70 nM; is it strictly lower for COc1ccc(-c2cnc(C(=O)Nc3ccc(C(=O)N4CCN(C(=O)[C@H]5C[C@@H](N)C5)CC4)c(Cl)c3)n2C)c(F)c1F [Example 140, formate] ?
## Result true

## Task Given Cn1c(-c2ccc(OCC#N)c(F)c2Cl)cnc1C(=O)Nc1ccc(C(=O)N2CCN(C(=O)[C@H]3CCNC3)CC2)c(Cl)c1 [Example 253, formate] , is recorded IC90 strictly lower than 70 nM?
## Result true

## Task A record lists COc1ccc(-c2cnc(C(=O)Nc3ccc(C(=O)N4CCN(C(=O)CC5CNC5)CC4)c(Cl)c3)n2C)c(F)c1F [Example 145, formate] . Is its IC90 below 70 nM?
## Result true

* * *

Known IC90 of a selection of molecules
Test system: Acinetobacter baumannii ATCC17961
Experiment: Antimicrobial susceptibility testing: 90% growth inhibitory concentration (IC90) determination, Iso-Sensitest broth
Assay type: cell-based
Settings: Acinetobacter baumannii, ATCC17961, 90% growth inhibitory concentration, Acinetobacter baumannii ATCC17961, Iso-Sensitest broth; read-out: ATCC 17961 IC90
Where a name gives a salt, the structure may show the parent alone.
Entry rule: numbers only, all in nM.

Solved entries:
molecule	tgt	IC90, nM
COc1ccc(-c2cnc(C(=O)Nc3ccc(C(=O)N4CC(NC(=O)CN(C)C)C4)c(Cl)c3)n2C)c(F)c1F [Example 189, formate]	Acinetobacter baumannii ATCC17961	140
Cn1c(-c2ccc(OCC#N)c(F)c2F)cnc1C(=O)Nc1ccc(C(=O)N2CCN(C(=O)CN3CC(C(=O)O)C3)CC2)c(Cl)c1 [Example 212, trifluoroacetate]	Acinetobacter baumannii ATCC17961	850
Cn1c(-c2ccc(OCC#N)c(F)c2Cl)cnc1C(=O)Nc1ccc(C(=O)N2CCN(C(=O)C3(O)CCNCC3)CC2)c(Cl)c1 [Example 251, formate]	Acinetobacter baumannii ATCC17961	50
COc1ccc(-c2cnc(C(=O)Nc3ccc(C(=O)N4CCN(S(C)(=O)=O)CC4)c(Cl)c3)n2C)c(F)c1F	Acinetobacter baumannii ATCC17961	320

As a next step, examine the molecule that follows.
For Cn1c(-c2ccc(OC(F)F)c(F)c2F)cnc1C(=O)Nc1ccc(C(=O)N2CCC(C(=O)N[C@H]3CNC[C@@H]3O)CC2)c(Cl)c1 [Example 50, trifluoroacetate] on Acinetobacter baumannii ATCC17961, measured IC90 was 50

* * *

System: Acinetobacter baumannii ATCC17961
Experiment: Antimicrobial susceptibility testing: 90% growth inhibitory concentration (IC90) determination, Iso-Sensitest broth
Type: cell-based
Conditions: Acinetobacter baumannii, ATCC17961, 90% growth inhibitory concentration, Acinetobacter baumannii ATCC17961, Iso-Sensitest broth; read-out: ATCC 17961 IC90
Structures can show the parent of a compound that is named as a salt.
Items are presented alongside their recorded IC90.
Answer by giving the amount and then stating its unit.

Examples with answers:
molecule	reading
COc1ccc(-c2cnc(C(=O)Nc3ccc(C(=O)N4CCC(C(=O)N5C[C@H]6CCN[C@H]6C5)C4)c(Cl)c3)n2C)c(F)c1F (stereo partly drawn) [Example 71, formate]	0.47 µM
Cn1c(-c2ccc(OCF)c(Cl)c2F)cnc1C(=O)Nc1ccc(C(=O)N2CCN(C(=O)[C@@H]3C[C@@H](O)CN3)CC2)c(Cl)c1	0.03 µM

Alright, here's another molecule for you.
# molecule COc1ccc(-c2cnc(C(=O)Nc3ccc(C(=O)N4CCN(C(=O)C[C@@H]5CCNC5)CC4)c(Cl)c3)n2C)c(C(F)F)c1F [Example 261, formate] ; its IC90 = 0.08 µM

* * *

Documented IC90 across a set of molecules
System: Acinetobacter baumannii ATCC17961
Assay: Antimicrobial susceptibility testing: 90% growth inhibitory concentration (IC90) determination, Iso-Sensitest broth
Type: cell-based
Conditions: Acinetobacter baumannii, ATCC17961, read-out: ATCC 17961 IC90
Where a name gives a salt, the structure may show the parent alone.
Write it as a number; the unit nM goes unstated.

Use the examples below as a reference point.
molecule	observable	units symbol	reading
COc1ccc(-c2cnc(C(=O)Nc3ccc(C(=O)N4CCN(C(=O)C5CCN(CCN)CC5)CC4)c(Cl)c3)n2C)c(F)c1F [Example 290, formate]	IC90	nM	50
Cn1c(-c2ccc(OCC#N)c(F)c2F)cnc1C(=O)Nc1ccc(C(=O)N2CCC(C(=O)NCC(O)CN)CC2)c(Cl)c1 (stereo not drawn)	IC90	nM	90
COc1ccc(-c2cnc(C(=O)Nc3ccc(C(=O)N4CCC(C(=O)N5C[C@H](N)[C@@H](F)C5)CC4)c(Cl)c3)n2C)c(F)c1F [Example 37, trifluoroacetate]	IC90	nM	170
Cn1c(-c2ccc(OC(F)F)c(F)c2F)cnc1C(=O)Nc1ccc(C(=O)N2CCC(C(=O)NCC3CNC3)CC2)c(Cl)c1 [Example 245, trifluoroacetate]	IC90	nM	30
Cn1c(-c2ccc(OC(F)F)c(F)c2F)cnc1C(=O)Nc1ccc(C(=O)N2CCC(C(=O)NCCN)CC2)c(Cl)c1	IC90	nM	60

According to the records, this molecule COc1ccc(-c2cnc(C(=O)Nc3ccc(C(=O)N4CCC(CCN)CC4)c(Cl)c3)n2C)c(F)c1F [Example 17, formate] displays IC90 of 30

* * *

System: Acinetobacter baumannii ATCC17961
Test: Antimicrobial susceptibility testing: 90% growth inhibitory concentration (IC90) determination, Iso-Sensitest broth
Assay type: cell-based
Settings: Acinetobacter baumannii, ATCC17961, 90% growth inhibitory concentration, Acinetobacter baumannii ATCC17961, Iso-Sensitest broth; read-out: ATCC 17961 IC90
Counter-ions that a name gives are not always drawn.
# IC90 listing for each entry below
Value expressed in nM; do not type the unit.

Worked set:
molecule	IC90 / nM
Cn1c(-c2ccc(OC(F)F)c(F)c2F)cnc1C(=O)Nc1ccc(C(=O)N2CCC(C(=O)N3CC[C@@H](N)C3)CC2)c(Cl)c1 [Example 45, trifluoroacetate]	80
Cn1c(-c2ccc(OCF)c(F)c2F)cnc1C(=O)Nc1ccc(C(=O)N2CCC(C(=O)NC3CCNCC3)CC2)c(Cl)c1 [Example 89, trifluoroacetate]	50

Reading of IC90 for COc1ccc(-c2cnc(C(=O)Nc3ccc(C(=O)N4CCC(C(=O)N5CC(N)C5)CC4)c(Cl)c3)n2C)c(F)c1F [Example 33, trifluoroacetate] with Acinetobacter baumannii ATCC17961: 90
